TEST SYSTEM: human BACE-1 (Homo sapiens)
Sequence (P56817 46-457 limits assumed): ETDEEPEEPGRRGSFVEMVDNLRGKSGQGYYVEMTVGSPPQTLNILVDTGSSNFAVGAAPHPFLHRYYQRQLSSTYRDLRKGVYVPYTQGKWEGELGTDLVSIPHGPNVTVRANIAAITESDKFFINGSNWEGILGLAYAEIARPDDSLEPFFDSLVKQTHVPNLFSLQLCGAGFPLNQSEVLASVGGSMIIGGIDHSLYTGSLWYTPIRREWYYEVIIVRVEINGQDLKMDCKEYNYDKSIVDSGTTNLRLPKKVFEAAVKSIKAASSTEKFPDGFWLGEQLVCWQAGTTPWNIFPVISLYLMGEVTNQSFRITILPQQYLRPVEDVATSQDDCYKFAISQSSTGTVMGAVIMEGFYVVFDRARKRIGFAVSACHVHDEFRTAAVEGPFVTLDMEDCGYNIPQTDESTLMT
ASSAY METHOD TEXT: Test 1: Inhibition of human BACE-1
TEST CONTEXT: recombinant BACE-1, pH 4.5, fluorescence-quenched APP-derived peptide substrate
Where a name gives a salt, the structure may show the parent alone.
PARAMETER: log10(IC50) (log10 of the value in µM)
# values: log10(IC50), units µM

Example results:
CC1(c2cc(NC(=O)c3ccc(Br)cn3)ccc2F)CN(c2cccnc2)C(=O)C(N)=N1 (centres unmarked) [Example 13, hydrochloride] | -2.15
CN1CC(N)=NC(C)(c2cc(NC(=O)c3ccc(Br)cn3)ccc2F)C1 (centres unmarked) [Example 2] | -0.74
COC(=O)N1CC(N)=NC(c2cc(NC(=O)c3ccc(C#N)cn3)ccc2F)(C(F)F)C1 (centres unmarked) [Example 20] | -1.28
COCCN1CC(C)(c2cc(NC(=O)c3ncc(Cl)cc3Cl)ccc2F)N=C(N)C1=O (centres unmarked) [Example 10, hydrochloride] | -1.47
Cc1cc(Br)cnc1C(=O)Nc1ccc(F)c(C2(C(F)F)CN(C(=O)OCC(Cl)Cl)CC(N)=N2)c1 (centres unmarked) [Example 22] | -2.30
CN1CC(N)=NC(C)(c2cccc(NC(=O)c3ccc(Br)cn3)c2)C1=O (centres unmarked) [Example 3] | -0.40
COCC(=O)N1CC(N)=NC(c2cc(NC(=O)c3ncc(Br)cc3C)ccc2F)(C(F)F)C1 (centres unmarked) [Example 23] | -2.15

Please look at the following molecule next.
Please fill in: log10(IC50) reported for CCC1C(N)=NC(C)(c2cccc(NC(=O)c3ccc(Br)cn3)c2)C(=O)N1C (mixture of isomers) [Example 15] = 0.11
